Values were extracted from ChEMBL document CHEMBL3885881.

- Organism: Rattus norvegicus
- experiment: DrugMatrix - Regimen: Daily Repeat
- Type: toxicity, organism-based, Sprague-Dawley
- Parameters: regimen Daily Repeat, gender Male, age 6-8 weeks
- test.settings: in vivo, po, 40 mg/kg, 120 h, tissue Blood, route oral GAVAGE, dose level Low, time 5 day, […]
endpoint.label: ABSOLUTE LYMPHOCYTE (CELLS/uL)
The answer is to be given in CELLS/uL; state only the numeric part.

Inquiry: For the compound CN(C)CCCC1(c2ccc(F)cc2)OCc2cc(C#N)ccc21 (configuration not stated) , what ABSOLUTE LYMPHOCYTE is on record?
Reply text: 8782.67
